Reference for the values: PubChem BioAssay

# Experimental Protocol: growth suppression of yeast trafficking mutant, preliminary HTS, modulators of trafficking downstream of Golgi apparatus project, 1536-format plate, OD 615 nm (AID 637)
# Run Parameters: yeast transport mutant growth, absorbance 615 nm, 18 h; stronger effect = higher value
The entries below are paired with their reported inhibition.
Property Measured: inhibition (%)

{"columns": ["Molecule", "Value Observed"],
 "data": [
  ["CCOC(=O)c1c(COC(=O)c2ccco2)nc2ccccc2[n+]1[O-]", 3.97],
  ["COc1ccc(OC(C)C(=O)N2CCN(c3ccccn3)CC2)cc1 (stereo not drawn)", -0.32],
  ["CCNc1ccc2c(Cl)cc(=O)oc2c1", -1.59]
]}

###

# Experimental Protocol: viability of PTEN-null HCT116 cells – cell-based, HCT116 clonal line, CellTiter-Glo, pilot screen (AID 824);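 further: 0% = 20 µM Hyamine control and 100% = vehicle cell control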
# Run Parameters: HCT116 PTEN-deleted viability, 60 h, at 10 µM, stronger effect = lower value
Records with an inconclusive call do not appear.
Property Measured: viability (%)

{"columns": ["Molecule", "Unit Abbrev", "Value Observed"],
 "data": [
  ["C=CCn1c(SCc2cc(=O)n3ccsc3n2)nc2scc(C3CC3)c2c1=O", "%", 91.8],
  ["Brc1ccc(Oc2nnnn2-c2ccccc2)cc1", "%", 88.9],
  ["Brc1ccccc1-c1nnc(CSc2nnc3sc4ccccc4n23)o1", "%", 91.7],
  ["COc1ccc(OC)c(-c2cc(C(=O)N3CCN(c4ccccc4)CC3)no2)c1", "%", 88.8],
  ["CN1CSC2=C(C#N)C(c3cccc(OCc4ccccc4)c3)CC(=O)N2C1 (stereo not given)", "%", 88.5]
]}

###

# Experimental Protocol: HUVEC growth inhibition – cell-based, human, primary screen (AID 575);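 further: 100% = median of untreated cell wells with 0.1% DMSO on each plate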
# Run Parameters: HUVEC proliferation, CellTiter-Glo luminescence, 72 h; at 10 µM; stronger effect = lower value

{"columns": ["Compound", "Unit Abbrev", "viability"],
 "data": [
  ["CON(C)c1nc(Oc2ccc(=O)[nH]n2)nc(N(C)C)n1", "%", 87.6],
  ["COc1ccc(S(=O)(=O)NCc2ccco2)cc1-c1nnc2c3ccccc3c(C)nn12", "%", 88.1],
  ["Cc1ccc(S(=O)(=O)NCCc2ccncc2)cc1", "%", 95.4],
  ["CCSc1ccccc1C(=O)NCc1ccc(S(N)(=O)=O)cc1", "%", 99.2],
  ["c1ccc(-n2ncc3c(NCc4cccs4)ncnc32)cc1", "%", 79],
  ["O=C(O)C1CC(=O)N(c2ccc(OCc3c(F)cccc3Cl)cc2)C1 (stereo not given)", "%", 105],
  ["COc1cccc2c1C(=O)c1c(O)c3c(c(O)c1C2=O)C[C@@](O)(C(C)=O)C[C@@H]3O[C@H]1C[C@H](N)[C@H](O)[C@H](C)O1", "%", 5.46],
  ["CN(C)CCSc1nnc2sc3ccccc3n12", "%", 94.2],
  ["CC1(c2ccc(OC(F)F)cc2)NC(=O)N(CC(=O)Nc2ccc3c(c2)OCO3)C1=O (stereo not given)", "%", 81.6],
  ["CCOc1ncccc1C(=O)Nc1ccc2c(C)cc(=O)oc2c1", "%", 84.1]
]}

###

# Experimental Protocol: S. cerevisiae growth inhibition in permissive medium (OD615), pilot counter-assay for S. cerevisiae lifespan shortening project, permissive growth control (AID 705)
# Run Parameters: OD615, 24 h, at 10 µM, stronger effect = higher value
Property Measured: growth inhibition (%)

{"columns": ["Compound", "Value Observed"],
 "data": [
  ["CCOC(=O)C1Cn2c(nc3c(c2=O)C2(CCCC2)Cc2ccccc2-3)S1 (centres undefined)", -15.5],
  ["CCC(Sc1nc2c(cnn2-c2ccccc2)c(=O)[nH]1)C(=O)OC (centres undefined)", -17.3],
  ["Cc1ccc(CNC(=O)CS(=O)Cc2nc(-c3ccccc3C)oc2C)cc1 (centres undefined)", -3.71],
  ["Cc1noc(/C=C/N(C)C)c1S(=O)(=O)N1CCCC(C(=O)NCc2cccs2)C1 (centres undefined)", 2],
  ["COc1ccc(Nc2nc(N)nc(CN3CCC(Cc4ccccc4)CC3)n2)cc1", 6.83],
  ["O=C(c1cc(C2CC2)on1)N1CCN(c2ccc(F)cc2)CC1", -18.2],
  ["N#CCSc1n[nH]c2nc3c(c(=O)n12)C1(CCCC1)Cc1ccccc1-3", -1.95],
  ["Nc1ccc(S(=O)(=O)N2CCCc3ccccc32)cc1", -18.7],
  ["Cc1cccc(N2CCN(C(=O)c3cc4c(C)nc5ccccc5c4o3)CC2)c1C", -8.18]
]}

###

# Experimental Protocol: doxorubicin toxicity protection in MRP-1 cells – H69AR cells, CellTiter-Glo, duplicate, MRP-1 activator project, pilot screen (AID 807);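 further: compound pretreatment 18-22 h then 72 h combined with doxorubicin; 0% = doxorubicin alone and 100% = vehicle without doxorubicin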
# Run Parameters: H69AR viability with doxorubicin, CellTiter-Glo luminescence; at 10 µM; stronger effect = higher value
The entries below are paired with their reported viability increase.

{"columns": ["Structure Smiles String", "Unit Abbrev", "viability increase"],
 "data": [
  ["O=c1c2ccccc2nc(N2CCN(c3ccccc3)CC2)n1Cc1ccccc1", "%", -6.05],
  ["Clc1ccc(Cc2nnc(-c3cccs3)o2)cc1", "%", 4.43],
  ["O=C1CCCN1CCCNc1ncnc2c1cnn2-c1ccc(Cl)cc1", "%", -0.95],
  ["COc1ccc(N2CCN(C(=O)CCS(=O)(=O)c3cccc4nsnc34)CC2)cc1", "%", -2.63],
  ["COCCNc1oc(-c2ccccc2Cl)nc1C#N", "%", -0.81]
]}

###

# Experimental Protocol: MRP1 drug-resistance reversers in H69AR cells – cell-based, doxorubicin co-treatment, pilot screen (AID 601)
# Run Parameters: H69AR cells, CellTiter-Glo, 72 h; compound alone cytotoxicity; at 10 µM

{"columns": ["Molecule", "viability [%]"],
 "data": [
  ["CCOC(=O)C1CCN(C(=O)CN(Cc2ccccc2)S(C)(=O)=O)CC1", 92.1],
  ["CCc1nnc(NC(=O)CCC(=O)Nc2ccccc2)s1", 90],
  ["COc1ccc(C(=O)Cn2nnc(-c3cccs3)n2)cc1", 90.9],
  ["O=C(Nc1ccc2c(c1)C(=O)N(C1CCCCC1)C2=O)C1CCCO1 (stereo not drawn)", 90.9],
  ["COc1ccc(C2(C(=O)Nc3cc(C)on3)CCOCC2)cc1", 88.1],
  ["CC1(c2ccc(OC(F)F)cc2)NC(=O)N(CC(=O)Nc2ccc3c(c2)OCO3)C1=O (stereo not drawn)", 91.7],
  ["Cn1nc(-c2ccc(C(=O)N3CCN(c4ccccc4)CC3)cc2)c2ccccc2c1=O", 92.4],
  ["Cc1cccc(NC(=O)c2oc3c(c2C)C(=O)CC(C)(C)C3)n1", 92.3]
]}

###

# Experimental Protocol: viability of HCT116 without oncogenic beta-catenin – human colon tumor cells, pilot screen (AID 823);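 further: 0% = wells killed by 20 µM Hyamine and 100% = untreated DMSO cell wells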
# Run Parameters: HCT116 beta-catenin knockout viability, CellTiter-Glo, 60 h; at 10 µM
Results filed as inconclusive are left out. Active and inactive are the calls of the source.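 The calls were made as follows: active = cell viability at or below a set limit in both duplicate runs, the limit being the all-compound median minus 4 SD (cut at about 23% in these data, passing the limit was not always enough); inconclusive = no clear call, values can overlap the other calls; inactive = the rest.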
Labels: TRUE for active, FALSE for inactive

{"columns": ["Compound", "Category"],
 "data": [
  ["COC(=O)c1c(NC(=O)C2CC2)sc2c1CCCC2", "FALSE"],
  ["COc1ccc(N2CCN(C(=O)CCS(=O)(=O)c3cccc4nsnc34)CC2)cc1", "FALSE"],
  ["CCOC(=O)c1ccc(NC(=O)c2ccc(C)c(S(=O)(=O)N3CCOCC3)c2)cc1", "TRUE"],
  ["CCNC(=O)CCn1nc(-c2ccc(Cl)cc2)c2ccccc2c1=O", "FALSE"],
  ["COc1ccc(OC)c2c1sc(=NC(=O)c1ccco1)n2C", "FALSE"],
  ["CC1CCN(c2nc3c(c(=O)[nH]c(=O)n3C)n2CCCc2ccccc2)CC1", "FALSE"],
  ["COc1ccc(-c2noc(-c3cc(C)cc(C)c3)n2)cc1OC", "FALSE"],
  ["O=S1(=O)C=C(SCCN2CCCCC2)c2ccccc21", "FALSE"],
  ["CCCCCCC1C(C#N)=C(N)OC2=C1C(=O)CC(C)(C)C2 (stereo not given)", "FALSE"],
  ["O=C(c1cnn2ccccc12)N1CCCc2ccccc21", "FALSE"]
]}

###

# Experimental Protocol: S. cerevisiae growth inhibition in restrictive medium, OD615, pilot screen, restrictive growth control, yeast lifespan reduction project (AID 706);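 further: modified DeaD lifespan yeast strain shifted to restrictive glucose medium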
# Run Parameters: OD615, 48 h, at 10 µM, stronger effect = higher value
Property Measured: growth inhibition (%)

{"columns": ["Compound", "Property Measured", "Unit Abbrev", "Value Observed"],
 "data": [
  ["CCOC(=O)c1ccccc1NC1c2ccccc2C(=O)N1c1ccc(C)cn1 (configuration not stated)", "growth inhibition", "%", 6.58],
  ["COC(=O)c1c(-c2ccc(F)cc2)csc1NC(=O)c1ccco1", "growth inhibition", "%", 0.595],
  ["COCCNc1oc(-c2ccccc2Cl)nc1C#N", "growth inhibition", "%", -2.94],
  ["Cc1ccc(-c2nc3cnccn3c2Nc2ccc3c(c2)OCCO3)o1", "growth inhibition", "%", -5.81],
  ["c1ccc(CNc2ncnc3nc[nH]c23)nc1", "growth inhibition", "%", -1.55],
  ["C(=C\\c1ccccc1)/CN1CCN(c2ncnc3c2oc2ccccc23)CC1", "growth inhibition", "%", -6.73],
  ["COC(=O)C1=C(N)N(c2ccc(F)cc2)C2=C(C(=O)CCC2)C1c1ccc2c(c1)OCO2 (configuration not stated)", "growth inhibition", "%", -5.16],
  ["NC/C(=N\\O)c1ccc(Cl)cc1Cl", "growth inhibition", "%", -12.5],
  ["CCCCCCC1C(C#N)=C(N)OC2=C1C(=O)CC(C)(C)C2 (configuration not stated)", "growth inhibition", "%", -40.1],
  ["COC(=O)CSc1nc2ccc(NC(=O)CSc3nnnn3Cc3ccccc3)cc2s1", "growth inhibition", "%", 13.8],
  ["O=S1(=O)C=C(SCCN2CCCCC2)c2ccccc21", "growth inhibition", "%", -20.4],
  ["CCCCSc1nc2c(c(=O)[nH]c(=O)n2C)n1CCc1ccccc1", "growth inhibition", "%", -9.86],
  ["Cc1noc(/C=C/NCc2cccnc2)c1S(=O)(=O)N(C)CC(=O)N1CCc2ccccc21", "growth inhibition", "%", -7.69],
  ["COc1ccc(OC)c(NC(=O)C2CCC(CNc3c(N4CCC(C)CC4)c(=O)c3=O)CC2)c1 (configuration not stated)", "growth inhibition", "%", -11.5],
  ["COc1ccc(-c2cc(CCCC(=O)NCc3ccccn3)no2)cc1", "growth inhibition", "%", 8.54],
  ["Cc1cccc(-c2noc(CN(C(=O)c3c(-c4ccccc4Cl)noc3C)C(C)C)n2)c1", "growth inhibition", "%", -13],
  ["CSc1nc(NCCOCCO)c2sc3nc(-c4ccco4)c4c(c3c2n1)CCC4", "growth inhibition", "%", 0.84]
]}
